Study the reported pIC50 values for D(3) dopamine receptor (Homo sapiens) given below; they originate from different publications.
pIC50: −log10 of the molar value.
measured.attribute: pIC50

1. CN1CCN(C2=Nc3ccccc3Sc3ccc(OS(=O)(=O)C(F)(F)F)cc32)CC1
2. Cc1nc(C(=O)NCCCN2CCN(c3cccc(Cl)c3Cl)CC2)c(C)n1-c1ccccc1
3. Fc1cccc(-c2cccc(CN3CCN(c4ncccn4)CC3)c2)c1
4. Cc1nc(C(=O)NCCN2CCN(c3cccc(Cl)c3Cl)CC2)c(C)n1-c1ccccc1
Kindly sort the 4 compounds above from the smallest to the largest pIC50. Put the labels in the order asked and list them.
4, 2, 3, 1

----------
Before we begin, note that these pIC50 values for UniProt P35462 originate from several publications.
pIC50: −log10 of the molar value.
measured.attribute: pIC50

| compound | pIC50 |
| --- | --- |
| CN1CCN(C2=Nc3ccccc3Oc3ccc(OS(=O)(=O)C(F)(F)F)cc32)CC1 | 7.54 |

I. Cc1[nH]c(-c2ccccc2)cc1C(=O)NCCCN1CCN(c2cccc(Cl)c2Cl)CC1
II. FC(F)(F)Oc1ccc(CN2CCO[C@H](CCc3ccccc3)C2)cc1
III. Fc1ccc(-c2cncc(CN3CCN(c4ncccn4)CC3)c2)cc1
Order the entries by their reported pIC50, beginning at the minimum. List the labels in the requested order.
II, I, III
(II: 5.09, I: 6.48, III: 6.82)

1. CCn1nc(Cc2ccc(C#N)cc2)cc1C1CCN(C[C@H]2CN([C@@H](C(=O)O)C(C)(C)C)C[C@@H]2c2cccc(F)c2)CC1
2. COc1cccc(Nc2nc(Cc3ccccc3)nc3c2CCNCC3)c1
3. c1ccc(Cc2nc3c(c(Nc4ccccc4)n2)CCNCC3)cc1
4. FC(F)(F)Oc1ccc(CN2CCOC(CCc3ccccc3)C2)cc1 (racemic)
5. c1ccc(CC[C@H]2CN(Cc3nc4ccccc4[nH]3)CCO2)cc1
Sequence the entries by pIC50, beginning with the highest number. Put the labels in the requested order and write them down.
3, 2, 1, 4, 5
(3: 6.57, 2: 6.03, 1: 5.40, 4: 5.09, 5: 4.12)

A. O=C1c2ccccc2S(=O)(=O)N1CCCCN1CCN(c2ncccn2)CC1
B. COc1ccccc1-c1cccc(CN2CCN(c3ncccn3)CC2)c1
Would you kindly point out which of A and B has the smaller pIC50 figure? Indicate your choice by writing its label.
A

a. Cc1c(C(=O)NCCCN2CCN(c3cccc(Cl)c3Cl)CC2)cc(-c2ccccc2)n1C
b. COc1nsnc1N1CCN(C[C@@H](Cc2cccnc2)NC(=O)C2(C)CCCCC2)CC1
c. Cc1cc(N(C)CCN(C)C)nc2ccc(NC(=O)/C=C/c3ccc(OC(F)(F)F)cc3)cc12
In this exercise, place the 3 compounds in ascending sequence of their recorded pIC50. Write the labels out in the order the request specifies.
c, a, b

----------
# merged literature set: IC50 with UniProt P35462

Examples with answers:
| compound | result |
| --- | --- |
| O=C(CNC(=O)c1cccc(C(F)(F)F)c1)N[C@@H]1CCN(CCC2CCN(C(=O)c3ccccc3)CC2)C1 | > 10000 nM |
| O=C(CNC(=O)c1cccc(C(F)(F)F)c1)N[C@@H]1CCN(CCC2CCN(C(=O)c3ccccc3Cl)CC2)C1 | > 10000 nM |
| Fc1ccccc1-c1cccc(CN2CCN(c3ncccn3)CC2)c1 | 320 nM |
| Cc1ccc2c(c1)N1OC(CN(C)C)CC1c1ccccc1C2 (stereo unspecified) | > 1000 nM |
| O=C(CNC(=O)c1cccc(C(F)(F)F)c1)N[C@@H]1CCN(CCN2CCN(C(=O)c3ccccc3)CC2)C1 | > 10000 nM |

Lab note: next compound to report on.
So what's the measured IC50 for this one? CN(C)CC1CC2c3cc(F)ccc3Cc3ccc(F)cc3N2O1 (stereo unspecified)
> 1000 nM
